Molecular target: CYP3A4/5 (Homo sapiens, UniProt P08684+P20815)
Test: Inhibition of CYP3A4/5 in human liver microsomes assessed as reduction in testosterone-beta-hydroxylation
Type: ADME, Microsome
Settings: probe testosterone
Entries and their log10 IC50
MEASURE_NAME: log10 IC50 (log10 of the value in nM)

{"MOLECULE": "CC(C)(C)OC(=O)N1CCN(C(c2cccnc2)c2ccc(Cl)cc2F)CC1 (stereo not given)", "log10 IC50": 3.28}
{"MOLECULE": "CC(C)(C)OC(=O)N1CCN(C(c2cncnc2)c2ccc(Cl)cc2F)CC1 (stereo not given)", "log10 IC50": 3.46}
{"MOLECULE": "O=S(=O)(c1ccccc1)N1CCN(C(c2ccc(Cl)cc2)c2cccnc2)CC1 (stereo not given)", "log10 IC50": 3.28}
{"MOLECULE": "CS(=O)(=O)N1CCN(C(c2ccc(Cl)cc2)c2cccnc2)CC1 (stereo not given)", "log10 IC50": 3.56}
{"MOLECULE": "CC(C)(C)C(=O)N1CCN(C(c2cccnc2)c2ccc(Cl)cc2F)CC1 (stereo not given)", "log10 IC50": 3.00}
{"MOLECULE": "CC(C)(C)C(=O)N1CCN(C(c2cncnc2)c2ccc(Cl)cc2F)CC1 (stereo not given)", "log10 IC50": 3.85}
{"MOLECULE": "O=S(=O)(c1ccccc1)N1CCN(C(c2cccnc2)c2ccc(Cl)cc2F)CC1 (stereo not given)", "log10 IC50": 2.78}
{"MOLECULE": "COc1ccccc1N1CCN(C(c2ccc(C(F)(F)F)cc2)c2cnccn2)CC1 (stereo not given)", "log10 IC50": 4.40}
{"MOLECULE": "CS(=O)(=O)N1CCN(C(c2cccnc2)c2ccc(Cl)cc2F)CC1 (stereo not given)", "log10 IC50": 3.11}
{"MOLECULE": "CC(C)S(=O)(=O)N1CCN(C(c2ccc(Cl)cc2)c2cccnc2)CC1 (stereo not given)", "log10 IC50": 2.91}
{"MOLECULE": "CC(C)(C)C(=O)N1CCN(C(c2cccnc2)c2ccc(C(F)(F)F)cc2F)CC1 (stereo not given)", "log10 IC50": 3.59}
{"MOLECULE": "O=C(C1CCCCC1)N1CCN(C(c2cccnc2)c2ccc(Cl)cc2F)CC1 (stereo not given)", "log10 IC50": 3.59}
{"MOLECULE": "CC(C)(C)NC(=O)N1CCN(C(c2cncnc2)c2ccc(Cl)cc2F)CC1 (stereo not given)", "log10 IC50": 3.84}
{"MOLECULE": "O=C(Nc1ccc(Cl)cc1)N1CCN(C(c2cncnc2)c2ccc(Cl)cc2F)CC1 (stereo not given)", "log10 IC50": 2.48}
{"MOLECULE": "O=C(C1CC1)N1CCN(C(c2cccnc2)c2ccc(Cl)cc2F)CC1 (stereo not given)", "log10 IC50": 3.26}
{"MOLECULE": "CS(=O)(=O)N1CCN(C(c2cccnc2)c2ccc(C(F)(F)F)cc2F)CC1 (stereo not given)", "log10 IC50": 3.00}
{"MOLECULE": "CC(=O)N1CCN(C(c2ccc(Cl)cc2)c2cccnc2)CC1 (stereo not given)", "log10 IC50": 3.87}
{"MOLECULE": "CS(=O)(=O)N1CCN(C(c2cncnc2)c2ccc(C(F)(F)F)cc2F)CC1 (stereo not given)", "log10 IC50": 3.75}
{"MOLECULE": "CC(C)(C)C(=O)N1CCN(C(c2ccc(C(F)(F)F)cc2)c2cccnc2)CC1 (stereo not given)", "log10 IC50": 3.36}
{"MOLECULE": "Cc1csc(C(=O)N2CCN(C(c3cccnc3)c3ccc(Cl)cc3F)CC2)n1 (stereo not given)", "log10 IC50": 3.45}
